# assayed system: T1, EGFR Fc (human, UniProt P00533 25-645)
# T1 construct: also called EGFR-hFc; recombinant human EGFR-Fc
# measurement description: ELISA, EGFR Fc coated, VHH at 0.4 nM
OD450 reference
measure name: OD450

[[record]]
binder = "pgEG-SX52 (VHH, not shown: small tags and cut ends) VHH: QVQLVESGGGLVKAGKSLRLSCAASVSSFDTYTMGWYRQAPGKQREQVAIITPGAGTHYADSVKGRFTISRDNAKNTVYLQMSSLKLEDTAVYYCKARHRITGYDYWGQGTQVTVSS"
measure_name = "OD450"
readout_value = 2

[[record]]
binder = "pgEG-SX9 (VHH, not shown: small tags and cut ends) VHH: QVQLVESGGGLVQAGGSLRLSCAASVSGSALSNMAWYRQRPGNQRELVAHITFDNFTNYADSVKGRFTISRDNVKNTVDLQMSSLKPEDTAVYYCNARHFFGDNYWGKGTLVTVSS"
measure_name = "OD450"
readout_value = 2.4

[[record]]
binder = "pgEG-SX57 (VHH, not shown: small tags and cut ends) VHH: QVQLVESGGGLVQAGGSLRLSCAGARSIFSIKPMTWYRQAPGKERELVAWFTSGDSPNYADSVKGRFTISRDSAKNTVYLQMNNLKPEDTAVYYCNAVPPLGRWGQGTLVTVSS"
measure_name = "OD450"
readout_value = 2.67

[[record]]
binder = "pgEG5 (VHH, not shown: small tags and cut ends) VHH: QVQLVESGGGLVQPGGSLRLSCTASHNIFSDNAMAWSRQAPGAQRELVARIATGGNTYYPDSVKGRFTISRDNAKNTVYLQMNNLTPDDTAVYYCYAERWTGLEYSRTYWGQGTQVTVSS"
measure_name = "OD450"
readout_value = 1.2

[[record]]
binder = "pgEG-SX56 (VHH, not shown: small tags and cut ends) VHH: QVQLVESGGGFVQAGGSLRLSCAASGRFLSIADMDWYRRVPGKQRELVASITRAGDTALEDSVKGRFTISRDNAKNTVHLQMNSVKPEDTAVYYCRADVTRSGTPYFEVWGQGTLVTVSS"
measure_name = "OD450"
readout_value = 1.32

[[record]]
binder = "pgEG-SX3 (VHH, not shown: small tags and cut ends) VHH: QVQLVESGGGLVQAGGSLRLSCVVYGSIFASTTMGWYRQAPGKQRELVATVYQSGTSVYADSVKGRFTASRDNAKKTVYLQMNSLKPEDTAVYYCHPRATDYWGRGTQVTVSS"
measure_name = "OD450"
readout_value = 0.762

[[record]]
binder = "pgEG-SX55 (VHH, not shown: small tags and cut ends) VHH: QVQLVESGGGLVQPGGSLRLSCAGTGLIFTTYVMGWYRQAPGKQRELVAIVTNGGGTHYADFVKGRFTISRDNAKNTVSLQMNLLKPEDTAVYYCNARHLVRPGTNDYWGQGTLVTVSS"
measure_name = "OD450"
readout_value = 1.61

[[record]]
binder = "pgEG-SX22 (VHH, not shown: small tags and cut ends) VHH: QVQLVESGGGLVQAGGSLRVSCAVSGGALSAYAMAWFRQAPGKEREFVAGLNWGGDETYYADSAKGRFTISKDNAKNTVSLQMNSLEPEDTAVYYCGGRPGPLLSRATGYKYWGQGTQVTVSS"
measure_name = "OD450"
readout_value = 1.72


Ref: patent US20250376535A1
